# target of assay: acyl-CoA:cholesterol acyltransferase (ACAT)
# assay summary: in vitro ACAT inhibition test: radio-labeled cholesteryl oleate formed from radio-labeled oleic acid in intestinal microsomes
# condition notes: concentration required to inhibit cholesteryl oleate formation to 50% of control; tissue preparation containing rabbit intestinal microsomes
# Procedure: The ability of representative compounds of the present invention to inhibit ACAT was measured using an in vitro test more fully described in Field, F. J. and Salone, R. G., Biochemica et Biophysica 712: 557-570 (1982). […] The data appear in the Table where they are expressed as IC₅₀ values; i.e. the concentration of test compound required to inhibit cholesteryl oleate formation to 50% of control.
pIC50: −log10 of the molar value.
Please use criterion met for pIC50 under 6 and criterion not met for everything else, ties included.

Example entries and their recorded answers appear below.
>>> assigned_category("CCCCc1ccc(OCCCC(C)(C)C(=O)Nc2c(OC)cc(OC)cc2OC)cc1")
"criterion not met"
>>> assigned_category("COc1cc(OC)c(NC(=O)C(C)(C)CCCOc2ccc(C(C)(C)C)cc2)c(OC)c1")
"criterion not met"
>>> assigned_category("CCCCc1ccc(OCCCC(C)(C)C(=O)Nc2c(OC)ncnc2OC)cc1")
"criterion met"

Would you kindly look at the next entry?
Task: Quick check: pIC50 of CCCCc1ccc(OCCCC(C)(C)C(=O)Nc2ccccc2OC)cc1 under 6?
Output: criterion met

----------
Let's look at some compounds and their measured IC50.
# target of assay: acyl-CoA:cholesterol acyltransferase (ACAT)
# assay summary: in vitro ACAT inhibition test: radio-labeled cholesteryl oleate formed from radio-labeled oleic acid in intestinal microsomes
# condition notes: concentration required to inhibit cholesteryl oleate formation to 50% of control; tissue preparation containing rabbit intestinal microsomes
Numeric answer only, unit nM assumed.

Some compounds with known IC50 results, for comparison:
>>> result_value("CCCCCCc1ccc(OCCCC(C)(C)C(=O)NC(C)c2ccccn2)cc1 (stereo not shown)")
700
>>> result_value("CCCCc1ccc(OCCCC(C)(C)C(=O)NC(C)c2ccccn2)cc1 (stereo not shown)")
800
>>> result_value("CCCCCCCCc1ccc(OCCCC(C)(C)C(=O)NC(C)c2ccccn2)cc1 (stereo not shown)")
450
>>> result_value("CC(C)(CCCOc1ccc(C(C)(C)C)cc1)C(=O)Nc1ccc(F)cc1F")
1200
>>> result_value("Cc1ccc(NC(=O)C(C)(C)CCCOc2ccc(C(C)(C)C)cc2)c(C)c1")
1400

Next compound, please.
Task: I am curious: what IC50 value has been reported for CCCCCCCCc1ccc(OCCCC(C)(C)C(=O)Nc2c(OC)cc(OC)cc2OC)cc1 ?
Output: 800

----------
Let's look at some compounds and their measured IC50.
# target of assay: acyl-CoA:cholesterol acyltransferase (ACAT)
# assay summary: in vitro ACAT inhibition test: radio-labeled cholesteryl oleate formed from radio-labeled oleic acid in intestinal microsomes
# condition notes: concentration required to inhibit cholesteryl oleate formation to 50% of control; tissue preparation containing rabbit intestinal microsomes
Numeric answer only, unit nM assumed.

>>> result_value("CCC(C)(C)c1ccc(OCCCC(C)(C)C(=O)NC(C)c2ccccn2)cc1 (stereo not shown)")
160

Task: I am curious: what IC50 value has been reported for CC(NC(=O)C(C)(C)CCCOc1ccc(C(C)(C)C)cc1)c1ccccn1 (stereo not shown) ?
Output: 700

Task: I am curious: what IC50 value has been reported for CCCCc1ccc(OCCCC(C)(C)C(=O)Nc2ccc(C)cc2OC)cc1 ?
Output: 2400

Task: I am curious: what IC50 value has been reported for Cc1ccc(OCCCC(C)(C)C(=O)NC(C)c2ccccn2)cc1 (stereo not shown) ?
Output: 4800
